target: PKM2 (Homo sapiens, UniProt P14618); assay: PKM2 activation biochemical assay (AC50 / max. response vs fructose 1,6-bisphosphate); conditions: % maximum response in a biochemical assay as compared with Fructose 1,6-bisphosphate
Sequence (P14618 whole entry): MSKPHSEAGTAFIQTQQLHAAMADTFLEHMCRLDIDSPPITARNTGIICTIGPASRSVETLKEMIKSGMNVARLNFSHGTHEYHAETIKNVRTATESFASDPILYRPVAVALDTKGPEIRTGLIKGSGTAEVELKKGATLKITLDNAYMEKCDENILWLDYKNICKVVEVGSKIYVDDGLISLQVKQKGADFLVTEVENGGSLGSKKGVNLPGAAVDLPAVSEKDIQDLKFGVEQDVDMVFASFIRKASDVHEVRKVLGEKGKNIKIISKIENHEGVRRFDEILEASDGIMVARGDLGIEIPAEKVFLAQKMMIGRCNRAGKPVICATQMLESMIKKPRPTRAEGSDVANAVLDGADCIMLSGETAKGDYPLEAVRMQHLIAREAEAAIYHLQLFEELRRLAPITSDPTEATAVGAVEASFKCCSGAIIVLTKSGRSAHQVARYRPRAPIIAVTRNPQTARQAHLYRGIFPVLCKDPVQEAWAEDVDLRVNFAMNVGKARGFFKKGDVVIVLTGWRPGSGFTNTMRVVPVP
readoutKind: Max. Resp. (%)
Write the value in % as a bare number.

Example entries and their recorded answers appear below.
# molecule, unitsText, Max. Resp. (%)
rows = [
    ("Nc1ccc(F)c(CN(CCN2CCCCCC2)C(=O)c2cc(C(F)(F)F)n[nH]2)c1", "%", 100),
    ("O=C(c1cc(C(F)(F)F)n[nH]1)N(Cc1cccc2[nH]ccc12)CC1CCC1", "%", 100),
    ("CCCN(CC)CCN(Cc1ccccc1Cl)C(=O)c1cc(C(F)(F)F)n[nH]1", "%", 100),
    ("O=C(c1cc(C(F)(F)F)n[nH]1)N(Cc1cccc2[nH]cnc12)CC1CCC1", "%", 100),
    ("COc1ccc(C(=O)CCSC(=S)NCc2cccnc2)cc1", "%", 63),
    ("O=C(c1cc(C(F)(F)F)n[nH]1)N(CCC1CCS(=O)(=O)CC1)Cc1ccccc1Cl", "%", 102),
    ("O=C(c1cc(C(F)(F)F)n[nH]1)N(CCN1CCCCCC1)Cc1c(Cl)cccc1[N+](=O)[O-]", "%", 100),
    ("O=C(c1cc(C(F)(F)F)n[nH]1)N(CCN1CCCCCC1)Cc1cccc2nc[nH]c12", "%", 100),
    ("CCN(CC)CCN(Cc1cc(N)ccc1Cl)C(=O)c1cc(C(F)(F)F)n[nH]1", "%", 100),
    ("O=C(c1cc(C(F)(F)F)n[nH]1)N(CCC1CCS(=O)(=O)C1)Cc1cc(F)cc(F)c1 (centres unmarked)", "%", 74),
]

Observed Max. Resp. (%) on PKM2 (Homo sapiens, UniProt P14618) for Nc1ccc(CN(CC2CCC2)C(=O)c2cc(C(F)(F)F)n[nH]2)c(Cl)c1 , please.
100

Observed Max. Resp. (%) on PKM2 (Homo sapiens, UniProt P14618) for O=C(c1cc(C(F)(F)F)n[nH]1)N(CCN1CCCCC1)Cc1c(F)cccc1Cl , please.
100

Observed Max. Resp. (%) on PKM2 (Homo sapiens, UniProt P14618) for CO[C@H]1CC[C@H](N(Cc2c(F)cccc2F)C(=O)c2cc(C(F)(F)F)n[nH]2)CC1 , please.
122

Observed Max. Resp. (%) on PKM2 (Homo sapiens, UniProt P14618) for O=C(CCSC(=S)NCc1cccnc1)c1cnc2ccccn12 , please.
101

Sourced from patent US20200237766A1
